This collection of values is drawn from patent US20150368338A1.

target_or_test_system: T1, IFN-αJ1 (human, UniProt P01567 24-189)
T1 construct: Recombinant, HEK293; also called IFN-α7
method_summary: ProteOn SPR, cell supernatant;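 further: each binding measurement used just a single antigen concentration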
Each entry below lists one item and its recorded pKd value.
Give only the number. pKd is defined as minus log10 of concentration in molar units.

IFWM3403 (antibody, IgG1, V domains shown, mAb; IgG1/kappa said of the parent and of selected mAbs; also called IFWB3138) VH: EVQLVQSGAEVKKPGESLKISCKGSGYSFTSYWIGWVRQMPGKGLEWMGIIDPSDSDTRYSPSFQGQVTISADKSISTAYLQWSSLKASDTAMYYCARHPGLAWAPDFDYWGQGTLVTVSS VL: DIQMTQSPSSLSASVGDRVTITCRASQSIRNSLNWYQQKPGKAPKLLIKWASSLQSGVPSRFSGSGSGTDFTLTISSLQPEDFATYYCQQLYDWPLTFGQGTKVEIK = 10.23
IFWM3383 (antibody, IgG1, V domains shown, mAb; IgG1/kappa said of the parent and of selected mAbs; also called IFWB3118) VH: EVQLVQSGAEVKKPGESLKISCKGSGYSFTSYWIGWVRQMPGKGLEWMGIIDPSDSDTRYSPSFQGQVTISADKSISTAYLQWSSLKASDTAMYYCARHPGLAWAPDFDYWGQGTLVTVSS VL: DIQMTQSPSSLSASVGDRVTITCRASQSISKFLNWYQQKPGKAPKLLIYFASSLQSGVPSRFSGSGSGTDFTLTISSLQPEDFATYYCQQSNTLPFTFGQGTKVEIK = 10.07
IFWM3419 (antibody, IgG1, V domains shown, mAb; IgG1/kappa said of the parent and of selected mAbs; also called IFWB3154) VH: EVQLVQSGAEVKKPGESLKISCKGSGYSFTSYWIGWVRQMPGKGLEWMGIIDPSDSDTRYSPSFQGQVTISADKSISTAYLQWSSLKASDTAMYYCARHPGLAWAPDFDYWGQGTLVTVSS VL: DIQMTQSPSSLSASVGDRVTITCRASQSIAGFLNWYQQKPGKAPKLLIYYASSLQSGVPSRFSGSGSGTDFTLTISSLQPEDFATYYCQQSYSIPITFGQGTKVEIK = 9.40
IFWM3415 (antibody, IgG1, V domains shown, mAb; IgG1/kappa said of the parent and of selected mAbs; also called IFWB3150) VH: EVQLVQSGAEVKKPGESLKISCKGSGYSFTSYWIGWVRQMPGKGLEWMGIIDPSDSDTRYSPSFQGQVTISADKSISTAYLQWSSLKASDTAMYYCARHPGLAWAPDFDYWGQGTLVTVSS VL: DIQMTQSPSSLSASVGDRVTITCRASQSISNSNLNWYQQKPGKAPKLLIHWASSLQSGVPSRFSGSGSGTDFTLTISSLQPEDFATYYCQQWYDHPLTFGQGTKVEIK = 10.29

Dear colleague, I am looking for the recorded pKd of the following binder: IFWM3384 (antibody, IgG1, V domains shown, mAb; IgG1/kappa said of the parent and of selected mAbs; also called IFWB3119) VH: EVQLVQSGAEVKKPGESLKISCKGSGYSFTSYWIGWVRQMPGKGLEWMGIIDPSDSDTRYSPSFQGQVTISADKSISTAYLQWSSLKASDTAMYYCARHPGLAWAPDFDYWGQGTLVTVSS VL: DIQMTQSPSSLSASVGDRVTITCRASQSITNFLNWYQQKPGKAPKLLIYFASSLQSGVPSRFSGSGSGTDFTLTISSLQPEDFATYYCQQSLDFPLTFGQGTKVEIK 10.17
